tested on: barnyardgrass (Echinochloa crus-galli); test: Test G Post-Emergence Protocol; type: in vivo; conditions: Echinochloa crus-galli, post-emergence, 312 h, 62.5 g ai/ha, evaluated after 13 days, read-out: Barnyardgrass damage rating (100=total damage to plant; 0=no damage to plant)
Label Not satisfied if pest or weed control at 62.5 g/ha falls below 10%; label Satisfied in every other case.

# Compound, Discrete Label
data = [
    ("Cc1onc(NC(=O)[C@@H]2C(=O)N(C)C[C@H]2c2ccc(C(F)(F)F)cc2)c1Cl (racemic)", "Not satisfied"),
    ("CN1C[C@@H](c2ccc(C(F)(F)F)cc2)[C@H](C(=O)Nc2ccnnc2)C1=O (racemic)", "Not satisfied"),
    ("Cc1cc([C@@H]2CN(C)C(=O)[C@H]2C(=O)Nc2cccc(F)c2F)cnc1Cl (racemic)", "Satisfied"),
    ("Cc1cc(Cl)ccc1NC(=O)[C@H]1C(=O)N(C)C[C@@H]1c1ccc(C(F)(F)F)cc1 (racemic)", "Not satisfied"),
    ("CN1C[C@H](c2ccc(C(F)(F)F)cc2)[C@@H](C(=O)Nc2ccc(F)cc2[N+](=O)[O-])C1=O (racemic)", "Satisfied"),
    ("CN1C[C@@H](c2ccc(C(F)(F)F)cc2)[C@H](C(=O)Nc2nnc[nH]2)C1=O (racemic)", "Not satisfied"),
]

Turning now to a further compound:
Query: Threshold query (pest or weed control at 62.5 g/ha >= 10%) on CN1C[C@@H](c2ccc(C(F)(F)F)cc2)[C@H](C(=O)Nc2cc(F)c(F)c(F)c2F)C1=O (racemic)
Response: Satisfied
